- MEASUREMENT_SETUP: in n-pentanol, 298.15 K
REPORTED_PROPERTY: solubility (mole fraction)
One number for each entry.

### Prompt Requested field: solubility (mole fraction). Item: Cl.c1ccc([C@H]2CN3CCSC3=N2)cc1
### Response 0.00209

---

- MEASUREMENT_SETUP: in isopentanol, 313.15 K
REPORTED_PROPERTY: solubility (mole fraction)
Give bare numbers.

### Prompt Requested field: solubility (mole fraction). Item: Cl.c1ccc([C@H]2CN3CCSC3=N2)cc1
### Response 0.00542

---

- MEASUREMENT_SETUP: in ethanol, 293.15 K
REPORTED_PROPERTY: solubility (mole fraction)
Give bare numbers.

### Prompt Requested field: solubility (mole fraction). Item: Cl.c1ccc([C@H]2CN3CCSC3=N2)cc1
### Response 0.0101
